Reported pKd values are given for each entry in this list.
Molecular target: T1, recombinant human CTLA4-his protein (Acro biosystems, Cat#CT4-H5229) (human, UniProt P16410 37-162)
T1 construct: bought recombinant protein; not shown: his tag
T1 sequence (looked up): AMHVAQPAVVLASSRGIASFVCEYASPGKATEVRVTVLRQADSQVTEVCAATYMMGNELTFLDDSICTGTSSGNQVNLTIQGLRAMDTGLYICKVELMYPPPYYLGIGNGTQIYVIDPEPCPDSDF
Assay: BLI, Octet RED96; antibody on AHC sensor, CTLA4-his as analyte
pKd: −log10 of the molar value.

Binder	pKd
chimeric D1B6 anti-CTLA4 antibody (antibody, human IgG4 S228P, kappa, V domains shown, mouse variable domains on human IgG4/kappa, made in 293F cells) VH: EVQLQQSGPELVKPGASVKLSCKASGNTFTTYVLNWVKQKPGQGLEWIGYFNPYNDGIKYNEKFKGKATLTSDKSSNTAYMELSSLTSEDSAVYYCARFEGGGYAMDYWGQGTSVTVSS VL: DIVLTQSPASLAVSLGQRATISCRASQSVGTSRNTYIHWYQQKLGQPPKLLIKYASDLESGVPARFSGSGSGTDFTLNIHPVEEEDTATYYCQHSWEIPYTFGGGTKLEIKR	6.83
chimeric C1D1 anti-CTLA4 antibody (antibody, human IgG4 S228P, kappa, V domains shown, mouse variable domains on human IgG4/kappa, made in 293F cells) VH: EVKLDETGGGLVQPGRPLKLSCVASGFTFSDNWMNWVRQSPEKGLEWVAQIRNKPYNYETYYSDSVKGRFTISRDDSKSSVYLQMNNLRVEDMGIYYCTGGMDYWGQGTSVTVSS VL: DIQMTQSPASLSASVGETVTITCGASEIIYGALNWYQQKQGKSPQLLIYGATNLADGMSSRFSGSGSGRQYSLKISSLHPDDAATYYCQKILSPPPWTFGGGTKLEIKR	9.47
chimeric D1D5 anti-CTLA4 antibody (antibody, human IgG4 S228P, kappa, V domains shown, mouse variable domains on human IgG4/kappa, made in 293F cells) VH: EVKLVESGGGLVKPGGSLKLSCAASGFTFSDYGMAWVRQAPGKGPEWVAFISNLAYSVYYADTETGRFTISREDAKNTLYLEMSSLRSEDTAMYYCARSGLPYAMDYWGQGTSVTVSS VL: DIQMTQTTSSLSASLGDRVTISCRASQDISNYLNWYQQKPDGTVKLLIYYISRLHSGVPSRFSGSGSGTDFSLTISNLEQEDIATYFCQQGRMLPWTFGGGTRLEIKR	8.27
chimeric C1G4 anti-CTLA4 antibody (antibody, human IgG4 S228P, kappa, V domains shown, mouse variable domains on human IgG4/kappa, made in 293F cells) VH: EVKLDETGGGLVQPGRPIKLSCVASGFTFSDNWMNWVRQSPEKGLEWVAQIRNKPYNYETYYSDSVKGRFTISRDDSKSSVYLQMNNLRTKDMGIYYCTGGFTYWGQGTLVTVSA VL: DIQMTQSPPSLSASVGETVTITCGASENIYGGLNWYQRKQGKSPQLLIYGATNLADGMSSRFSGSGSGRQYSLKISRLHPDDVATYYCQNVLNTPYTFGGGTKLEIKR	9.00
